This collection of values is drawn from patent US20230081720A1.

# testedOn: T1, soluble human CD74 (human, UniProt P04233-2 73-232, limits assumed)
# T1 construct: CD74' flowed over as analyte; also called human CD74 protein
# T1 sequence (looked up): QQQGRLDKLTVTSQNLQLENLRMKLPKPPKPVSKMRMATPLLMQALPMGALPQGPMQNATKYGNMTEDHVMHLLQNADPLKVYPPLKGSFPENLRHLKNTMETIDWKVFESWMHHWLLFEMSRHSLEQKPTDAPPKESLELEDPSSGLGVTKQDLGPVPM
# experimentalDetails: SPR, Biacore 8K; IgG captured by anti-IgG Fc, soluble CD74 as analyte; 1:1 model, apparent kinetics
Lab note: cut-off is 900 pM. Strictly less in Kd is 1.0. Exactly 900 pM or more is 0.0.

binder	groupLabel
Hcmil x LCmil_NQ (antibody, V domains shown, Tested as IgG; also called hLL1 heavy chain with hLL1 (NQ) light chain) VH: QVQLQQSGSELKKPGASVKVSCKASGYTFTNYGVNWIKQAPGQGLQWMGWINPNTGEPTFDDDFKGRFAFSLDTSVSTAYLQISSLKADDTAVYFCSRSRGKNEAWFAYWGQGTLVTVSS VL: DIQLTQSPLSLPVTLGQPASISCRSSQSLVHRNQNTYLHWFQQRPGQSPRLLIYTVSNRFSGVPDRFSGSGSGTDFTLKISRVEAEDVGVYFCSQSSHVPPTFGAGTRLEIK	0.0
Mil_HCx hzVk1a (antibody, V domains shown, Tested as IgG; also called hLL1 heavy chain with hzLL1-Vk1a light chain) VH: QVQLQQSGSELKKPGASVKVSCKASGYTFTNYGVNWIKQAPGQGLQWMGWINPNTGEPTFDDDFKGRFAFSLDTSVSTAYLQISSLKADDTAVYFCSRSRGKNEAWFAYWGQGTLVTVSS VL: DIVMTQTPLSLPVTPGEPASISCRSSQSLVHRNGNTYLHWYLQKPGQSPQLLIYTVSNRFSGVPDRFSGSGSGTDFTLKISRVEAEDVGVYFCSQSSHVPPTFGQGTKLEIK	1.0
VHmil x VK1bNQ (antibody, V domains shown, Tested as IgG; also called VHmil × VK1bNQ; hLL1 heavy chain with hzLL1-Vk1b (NQ) light chain) VH: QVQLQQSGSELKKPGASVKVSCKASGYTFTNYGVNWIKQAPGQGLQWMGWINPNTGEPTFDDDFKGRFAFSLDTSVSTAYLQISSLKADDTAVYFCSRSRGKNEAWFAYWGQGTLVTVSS VL: DVVMTQSPLSLPVTLGQPASISCRSSQSLVHRNQNTYLHWYQQRPGQSPRLLIYTVSNRFSGVPDRFSGSGSGTDFTLKISRVEAEDVGVYFCSQSSHVPPTFGQGTKLEIK	1.0
milatuzumab (antibody, V domains shown, also called hLL1; WT IgG) VH: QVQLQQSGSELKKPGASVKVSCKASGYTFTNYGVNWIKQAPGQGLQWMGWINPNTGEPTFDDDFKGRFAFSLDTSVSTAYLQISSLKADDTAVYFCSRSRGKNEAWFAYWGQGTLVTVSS VL: DIQLTQSPLSLPVTLGQPASISCRSSQSLVHRNGNTYLHWFQQRPGQSPRLLIYTVSNRFSGVPDRFSGSGSGTDFTLKISRVEAEDVGVYFCSQSSHVPPTFGAGTRLEIK	0.0
Mil_HCx hzVk1b (antibody, V domains shown, Tested as IgG; also called hLL1 heavy chain with hzLL1-Vk1b light chain) VH: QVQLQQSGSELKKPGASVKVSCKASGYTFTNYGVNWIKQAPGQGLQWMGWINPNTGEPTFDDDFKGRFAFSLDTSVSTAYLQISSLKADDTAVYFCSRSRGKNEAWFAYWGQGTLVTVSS VL: DVVMTQSPLSLPVTLGQPASISCRSSQSLVHRNGNTYLHWYQQRPGQSPRLLIYTVSNRFSGVPDRFSGSGSGTDFTLKISRVEAEDVGVYFCSQSSHVPPTFGQGTKLEIK	1.0
